assay: Stability in plasma (human); assay type: in vitro ADME; conditions: plasma, read-out: Stability-Plasma T1/2
MEASURED ATTRIBUTE: half-life

Example entries begin here.
MOLECULE: CNCc1ccc(-c2cc(=O)c3ccc4nc(C(F)(F)F)[nH]c4c3o2)cc1 [#2]
REPORTED: > 8 h
//
MOLECULE: CN(C)C(=O)c1ccc(-c2cc(=O)c3ccc4nc(C(F)(F)F)[nH]c4c3o2)cc1 [#4]
REPORTED: > 8 h

stdin: // returns reported half-life for input CNC(=O)c1ccc(-c2cc(=O)c3ccc4nc(C(F)(F)F)[nH]c4c3o2)cc1 [#3]
stdout: > 8 h

###

test: in vivo; conditions: ICR, mouse, po, 5 mg/kg, half-life in the brain
MEASURED ATTRIBUTE: half-life (h)
Note: unit h is implicit; provide only the numeric part.

stdin: Which half-life reading was recorded for the compound CNCc1ccc(-c2cc(=O)c3ccc4nc(C(F)(F)F)[nH]c4c3o2)cc1 ?
stdout: 2.39

###

settings: ICR, mouse, in vivo, po, 5 mg/kg
MEASURED ATTRIBUTE: clearance (mL/min/kg)
Please respond with the number in mL/min/kg and leave the unit unwritten.

stdin: Return reported clearance; argument: CNCc1ccc(-c2cc(=O)c3ccc4nc(C(F)(F)F)[nH]c4c3o2)cc1
stdout: 223

###

experiment: Permeability PAMPA-BBB; type: in vitro ADME; details: PAMPA; read-out: Permeability-PAMPA-BBB Pe
MEASURED ATTRIBUTE: Papp (×10⁻⁶ cm/s)

(I) CNC(=O)c1ccc(-c2cc(=O)c3ccc4nc(C(F)(F)F)[nH]c4c3o2)cc1
(II) CNCc1ccc(-c2cc(=O)c3ccc4nc(C(F)(F)F)[nH]c4c3o2)cc1
(III) CN(C)C(=O)c1ccc(-c2cc(=O)c3ccc4nc(C(F)(F)F)[nH]c4c3o2)cc1
stdin: Rank the listed compounds according to Papp, from the largest value downward. Order the labels as requested and give them as your answer.
stdout: III, I, II

###

test: Stability in microsomes (human); type: in vitro ADME; conditions: liver microsomes, read-out: Stability-Microsomes T1/2
MEASURED ATTRIBUTE: half-life (h)

(I) CNCc1ccc(-c2cc(=O)c3ccc4nc(C(F)(F)F)[nH]c4c3o2)cc1
(II) CNC(=O)c1ccc(-c2cc(=O)c3ccc4nc(C(F)(F)F)[nH]c4c3o2)cc1
stdin: Lab note: check whether I or II shows the higher recorded half-life. Returns: label corresponding to the selected item.
stdout: II
(II: 22.5 h, I: 9.97 h)

###

test: Stability in microsomes (human); assay type: in vitro ADME; conditions: liver microsomes, read-out: Stability-Microsomes CL
MEASURED ATTRIBUTE: microsomal CLint (µL/min/mg)

(a) CNC(=O)c1ccc(-c2cc(=O)c3ccc4nc(C(F)(F)F)[nH]c4c3o2)cc1
(b) CNCc1ccc(-c2cc(=O)c3ccc4nc(C(F)(F)F)[nH]c4c3o2)cc1
stdin: // compare measured microsomal CLint between a and b ; output the lower one Please respond with the label that marks your chosen entry.
stdout: a
(a: 1.03 µL/min/mg, b: 2.32 µL/min/mg)

###

biological target: hERG (Homo sapiens, UniProt Q12809); experiment: hERG inhibition
Sequence (Q12809 whole entry): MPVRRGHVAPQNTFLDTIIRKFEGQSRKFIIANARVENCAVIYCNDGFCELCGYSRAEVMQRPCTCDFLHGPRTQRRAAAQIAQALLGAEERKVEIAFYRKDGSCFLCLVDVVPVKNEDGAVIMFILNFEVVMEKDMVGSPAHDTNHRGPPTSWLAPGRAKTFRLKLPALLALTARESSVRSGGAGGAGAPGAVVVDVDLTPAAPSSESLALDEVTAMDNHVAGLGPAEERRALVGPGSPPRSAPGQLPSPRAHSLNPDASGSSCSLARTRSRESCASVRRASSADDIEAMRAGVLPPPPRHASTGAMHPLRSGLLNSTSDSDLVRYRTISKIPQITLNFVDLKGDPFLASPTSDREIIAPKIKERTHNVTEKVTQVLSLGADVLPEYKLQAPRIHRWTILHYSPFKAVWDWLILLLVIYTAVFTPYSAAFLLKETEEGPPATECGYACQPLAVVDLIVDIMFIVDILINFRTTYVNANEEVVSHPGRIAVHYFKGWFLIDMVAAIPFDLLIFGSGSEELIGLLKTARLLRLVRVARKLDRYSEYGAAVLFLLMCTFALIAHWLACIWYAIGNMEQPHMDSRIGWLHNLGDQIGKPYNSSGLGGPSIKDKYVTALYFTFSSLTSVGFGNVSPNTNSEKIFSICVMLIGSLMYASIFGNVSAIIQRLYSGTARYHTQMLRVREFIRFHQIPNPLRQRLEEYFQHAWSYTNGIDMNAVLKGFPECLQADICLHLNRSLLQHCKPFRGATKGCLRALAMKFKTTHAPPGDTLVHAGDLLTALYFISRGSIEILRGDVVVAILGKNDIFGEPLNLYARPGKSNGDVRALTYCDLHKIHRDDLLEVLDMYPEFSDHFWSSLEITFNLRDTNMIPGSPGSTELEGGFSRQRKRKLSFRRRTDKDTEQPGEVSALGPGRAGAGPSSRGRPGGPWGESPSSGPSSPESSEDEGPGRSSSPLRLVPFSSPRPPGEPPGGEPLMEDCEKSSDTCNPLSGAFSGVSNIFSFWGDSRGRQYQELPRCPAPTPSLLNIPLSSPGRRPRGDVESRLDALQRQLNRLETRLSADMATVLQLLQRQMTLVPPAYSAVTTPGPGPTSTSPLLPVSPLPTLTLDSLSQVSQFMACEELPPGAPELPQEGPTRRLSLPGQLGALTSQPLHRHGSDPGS
pIC50: −log10 of the molar value.
# maps each entry to its pIC50

stdin: Which pIC50 value belongs to N#Cc1ccc(-c2cc(=O)c3ccc4[nH]c(C(F)(F)F)nc4c3o2)cc1 [CF3CN, reference compound] ?
stdout: < 4.60

stdin: Sample CNC(=O)c1ccc(-c2cc(=O)c3ccc4nc(C(F)(F)F)[nH]c4c3o2)cc1 — what was its pIC50?
stdout: < 5.00

stdin: Request the reported pIC50 associated with CN(C)C(=O)c1ccc(-c2cc(=O)c3ccc4nc(C(F)(F)F)[nH]c4c3o2)cc1
stdout: < 5.00

stdin: pIC50 lookup needed for CNCc1ccc(-c2cc(=O)c3ccc4nc(C(F)(F)F)[nH]c4c3o2)cc1 , thanks.
stdout: < 5.00
